src = ChEMBL document CHEMBL1681720

- System: Protease (Human T-cell leukemia virus type I), Q82134 [L40I]
- Sequence (Q82134 entry or part of it L40I): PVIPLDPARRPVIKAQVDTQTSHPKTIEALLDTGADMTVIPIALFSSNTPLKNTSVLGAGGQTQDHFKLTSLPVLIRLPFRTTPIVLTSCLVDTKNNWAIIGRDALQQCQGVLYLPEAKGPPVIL
- assay overview: Inhibition of HTLV-1 protease L40I mutant at 50 nM by fluorimetric assay
readout: inhibition (%)
Numbers only, in %.

// below: answered compounds
1) CC(C)(C)CNC(=O)[C@H]1N(C(=O)[C@@H](O)[C@H](Cc2ccccc2)NC(=O)[C@@H](NC(=O)C2CCCCN2)C(C)(C)C)CSC1(C)C (stereo in doubt; 14a)    24
2) CCCC(=O)NC(C(=O)N[C@H](C(=O)N[C@@H](Cc1ccccc1)[C@H](O)C(=O)N1CSC(C)(C)[C@H]1C(=O)NCC(C)(C)C)C(C)(C)C)c1cc(F)c(F)c(F)c1 (stereo in doubt; 20a)    81
3) CC[C@H](C)[C@H](N)C(=O)N[C@H](C(=O)N[C@@H](Cc1ccccc1)[C@H](O)C(=O)N1CSC(C)(C)[C@H]1C(=O)NCC(C)(C)C)C(C)(C)C    31

Query: Give its inhibition value. Item: CC(C)(C)CNC(=O)[C@H]1N(C(=O)[C@@H](O)[C@H](Cc2ccccc2)NC(=O)[C@@H](NC(=O)C2CCCCN2)C(C)(C)C)CSC1(C)C (single isomer, unassigned; enantiomer b)
Response: 11

###

- test system: UniProtKB Q9YQ12
- Sequence (Q9YQ12 as listed by the source): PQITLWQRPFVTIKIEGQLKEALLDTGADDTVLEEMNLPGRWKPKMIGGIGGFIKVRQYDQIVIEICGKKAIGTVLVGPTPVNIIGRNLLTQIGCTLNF
- assay overview: Inhibition of recombinant HIV-1 protease at 50 nM
readout: inhibition (%)
Numbers only, in %.

Fill in inhibition for each of the 2 compounds listed.
1. CC(C)(C)CNC(=O)[C@H]1N(C(=O)[C@@H](O)[C@H](Cc2ccccc2)NC(=O)[C@@H](NC(=O)C(C)(C)c2ccccc2)C(C)(C)C)CSC1(C)C
2. CC(C)(C)CNC(=O)[C@H]1N(C(=O)[C@@H](O)[C@H](Cc2ccccc2)NC(=O)[C@@H](NC(=O)C(=O)c2ccccc2)C(C)(C)C)CSC1(C)C

Response:
[80, 76]

###

Answer each item with its documented inhibition.
- Tested on: Protease (Human T-cell leukemia virus type I), Q82134 [L40I]
- assay overview: Inhibition of HTLV-1 protease L40I mutant at 50 nM by fluorimetric assay
Answers are plain numbers, in %.

// below: answered compounds
1. CCCC(=O)NC(C(=O)N[C@H](C(=O)N[C@@H](Cc1ccccc1)[C@H](O)C(=O)N1CSC(C)(C)[C@H]1C(=O)NCC(C)(C)C)C(C)(C)C)c1cc(F)c(F)c(F)c1 (stereo in doubt; 19a)    84
2. CC(C)(C)CNC(=O)[C@H]1N(C(=O)[C@@H](O)[C@H](Cc2ccccc2)NC(=O)[C@@H](NC(=O)[C@@H](N)C(C)(C)C)C(C)(C)C)CSC1(C)C    19

Could you now look at the following compound, please?
Query: Look up inhibition: CC(C)(C)CNC(=O)[C@H]1N(C(=O)[C@@H](O)[C@H](Cc2ccccc2)NC(=O)[C@@H](NC(=O)C(=O)c2ccccc2)C(C)(C)C)CSC1(C)C
Response: 33

###

- test system: UniProt Q9YQ12
- assay overview: Inhibition of recombinant HIV-1 protease at 50 nM
Label label 0 if inhibition falls below 80%; label label 1 in every other case.

A selection of reference data follows.
1. CC(C)(C)CNC(=O)[C@H]1N(C(=O)[C@@H](O)[C@H](Cc2ccccc2)NC(=O)[C@@H](NC(=O)[C@@H](N)c2ccccc2)C(C)(C)C)CSC1(C)C    label 1
2. CC(C)(C)CNC(=O)[C@H]1N(C(=O)[C@@H](O)[C@H](Cc2ccccc2)NC(=O)[C@@H](NC(=O)[C@@H](N)Cc2ccccc2)C(C)(C)C)CSC1(C)C    label 1
3. CC(C)(C)CNC(=O)[C@H]1N(C(=O)[C@@H](O)[C@H](Cc2ccccc2)NC(=O)[C@@H](NC(=O)Cc2ccccc2)C(C)(C)C)CSC1(C)C    label 0
4. CC(C)(C)CNC(=O)[C@H]1N(C(=O)[C@@H](O)[C@H](Cc2ccccc2)NC(=O)[C@@H](NC(=O)C2CCCCN2)C(C)(C)C)CSC1(C)C (stereo in doubt; 14a)    label 1
5. CC(C)(C)CNC(=O)[C@H]1N(C(=O)[C@@H](O)[C@H](Cc2ccccc2)NC(=O)[C@@H](NC(=O)C2CCCCN2)C(C)(C)C)CSC1(C)C (single isomer, unassigned; enantiomer b)    label 0

Query: Would you say CC(C)(C)CNC(=O)[C@H]1N(C(=O)[C@@H](O)[C@H](Cc2ccccc2)NC(=O)[C@@H](NC(=O)[C@@H](O)c2ccccc2)C(C)(C)C)CSC1(C)C shows inhibition at minimum 80%?
Response: label 1

Query: Form field: inhibition at least 80%? Entry: CCCC(=O)NC(C(=O)N[C@H](C(=O)N[C@@H](Cc1ccccc1)[C@H](O)C(=O)N1CSC(C)(C)[C@H]1C(=O)NCC(C)(C)C)C(C)(C)C)c1cc(F)c(F)c(F)c1 (stereo in doubt; 20a)
Response: label 1

Query: # bool: inhibition of CC[C@H](C)[C@H](N)C(=O)N[C@H](C(=O)N[C@@H](Cc1ccccc1)[C@H](O)C(=O)N1CSC(C)(C)[C@H]1C(=O)NCC(C)(C)C)C(C)(C)C >= 80%
Response: label 1
